Tested on: apomorphine climbing
TEST_PROTOCOL: Neuroleptic activity in the climbing mice assay (apomorphine-induced climbing)
Assay type: in vivo, mice (CK-1 male)
EXPERIMENTAL_CONDITIONS: Mus musculus, ip, intraperitoneal 30 min before apomorphine 1.5 mg/kg s.c., climbing scored at 10, 20 and 30 min, linear regression, read-out: NEUROLEPTIC ACTIVITY (ED50 mg/kg)
Where a name gives a salt, the structure may show the parent alone.
READOUT: ED50 (mg/kg)
Give your result in mg/kg as a bare value.

Would you please look over these solved cases?
| COMPOUND | ED50 / mg/kg |
| --- | --- |
| Cl.Fc1ccc(C(CCCN2CCC(c3noc4cc(Cl)ccc34)CC2)c2ccc(F)cc2)cc1 | 6.4 |
| Fc1ccc(C(CCCN2CCC(c3noc4cc(F)ccc34)CC2)c2ccc(F)cc2)cc1 [hydrobromide] | 0.58 |
| COc1ccc2onc(C3CCN(CCCc4noc5cc(F)ccc45)CC3)c2c1 [hydrobromide] | 7.23 |

ED50 recorded for this compound, Fc1ccc(C(CCCN2CCC(c3noc4ccc(F)cc34)CC2)c2ccc(F)cc2)cc1 [hydrochloride] , is 1.6

Br.O=c1[nH]c2ccccc2n1CCN1CCC(c2noc3ccccc23)CC1 yielded ED50 of 7.7

----------
System: apomorphine climbing
TEST_PROTOCOL: Neuroleptic activity in the climbing mice assay (apomorphine-induced climbing)
Assay type: in vivo, mice (CK-1 male)
EXPERIMENTAL_CONDITIONS: Mus musculus, ip, intraperitoneal 30 min before apomorphine 1.5 mg/kg s.c., climbing scored at 10, 20 and 30 min, linear regression, read-out: NEUROLEPTIC ACTIVITY (ED50 mg/kg)
Description: The subject CK-1 male mice (23-27 grams) are group-housed under standard laboratory conditions. The mice are individually placed in wire mesh stick cages (4"×4" by 10") and are allowed one hour for adaptation and exploration of the new environment. For evaluation of climbing, 3 readings are taken at 10, 20 and 30 minutes after apomorphine administration according to the following scale: […] Mice consistently climbing before the injection of apormorphine will be discarded. […]
Structures can show the parent of a compound that is named as a salt.
Listing: ED50 of selected molecules
Please reply with the bare figure in mg/kg and do not write the unit itself.

In the examples that follow, each entry is paired with its recorded ED50.
| MOLECULE | MEASURED_VALUE |
| --- | --- |
| CCN1CCCC1CNC(=O)c1cc(S(N)(=O)=O)ccc1OC (centres unmarked) [sulpiride, reference compound] | 14.5 |
| Fc1ccc2c(CCCN3CCC(c4noc5ccc(F)cc45)CC3)noc2c1 [hydrochloride] | 3.4 |
| Cc1[nH]c2ccccc2c1CCCN1CCC(c2noc3cc(F)ccc23)CC1 | 0.16 |
| O=c1[nH]c2ccccc2n1CCCN1CCC(c2noc3ccccc23)CC1 | 0.36 |

I looked up Cl.O=C(CCCN1CCC(c2noc3cc(Cl)ccc23)CC1)c1ccc(F)cc1 and its ED50 for apomorphine climbing was 0.27

All values here come from patent US4352811A.
